- studyTarget: T1, PSMA Fab (biotinylated (site not stated))
- T1 construct: also called Anti-PSMA Fab; 006 PSMA Fab
- procedureDetails: clonal phage ELISA on captured PSMA Fab pre-incubated with PSMA antigen (competitor: PSMA), anti-M13-HRP detection
Where no end group is shown, it is not given here.
In this section we review reported phage binding ELISA signal in presence of PSMA values for a set of binders.
readout: phage binding ELISA signal in presence of PSMA

# binder, measured
rows = [
    ("GPKWCTPPWMCWEF (Clonal phage displaying the peptide, tested as crude supernatant; also called peptide-180 library clone; not shown: fused to the pIII filament protein of the bacteriophage) [Phage-2579]", 0.331),
    ("LTNWCTPSWMCYGL (Clonal phage displaying the peptide, tested as crude supernatant; also called peptide-180 library clone; not shown: fused to the pIII filament protein of the bacteriophage) [Phage-2577]", 0.0817),
    ("EVMWCRPAWMCDGI (Clonal phage displaying the peptide, tested as crude supernatant; also called peptide-180 library clone; not shown: fused to the pIII filament protein of the bacteriophage) [Phage-2583]", 0.0623),
    ("DLKRCIPDWMCAVA (cysteine pairing not given here; also: fused to phage pIII, linker and fusion site not given here, Clonal phage displaying the peptide, tested as crude supernatant; also called peptide-180 library clone; not shown: fused to the pIII filament protein of the bacteriophage) [Phage-2585]", 0.0617),
    ("ETQMCVPQWMCWGI (Clonal phage displaying the peptide, tested as crude supernatant; also called peptide-180 library clone; not shown: fused to the pIII filament protein of the bacteriophage) [Phage-2586]", 0.0571),
    ("SEKWCIPEWMCMYA (Clonal phage displaying the peptide, tested as crude supernatant; also called peptide-180 library clone; not shown: fused to the pIII filament protein of the bacteriophage) [Phage-2581]", 0.0532),
    ("EGKWCIPEWMCISV (Clonal phage displaying the peptide, tested as crude supernatant; also called peptide-180 library clone; not shown: fused to the pIII filament protein of the bacteriophage) [Phage-2582]", 0.0637),
    ("GVKWCTPAWMCEWT (Clonal phage displaying the peptide, tested as crude supernatant; also called peptide-180 library clone; not shown: fused to the pIII filament protein of the bacteriophage) [Phage-2580]", 0.0707),
    ("QEKMCIPAWMCSEY (Clonal phage displaying the peptide, tested as crude supernatant; also called peptide-180 library clone; not shown: fused to the pIII filament protein of the bacteriophage) [Phage-2576]", 0.0615),
    ("TFKWCTPAWMCAGF (cysteine pairing not given here; also: fused to phage pIII, linker and fusion site not given here, Clonal phage displaying the peptide, tested as crude supernatant; also called peptide-180 library clone; not shown: fused to the pIII filament protein of the bacteriophage) [Phage-2574]", 0.0801),
    ("VGKWCVPMWMCATD (cysteine pairing not given here; also: fused to phage pIII, linker and fusion site not given here, Clonal phage displaying the peptide, tested as crude supernatant; also called peptide-180 library clone; not shown: fused to the pIII filament protein of the bacteriophage) [Phage-2587]", 0.0735),
    ("EFKWCTPEWMCAMA (cysteine pairing not given here; also: fused to phage pIII, linker and fusion site not given here, Clonal phage displaying the peptide, tested as crude supernatant; also called peptide-180 library clone; not shown: fused to the pIII filament protein of the bacteriophage) [Phage-2575]", 0.0845),
    ("VDTWCTPPWMCWGL (cysteine pairing not given here; also: fused to phage pIII, linker and fusion site not given here, also called peptide-180 library clone; not shown: fused to the pIII filament protein of the bacteriophage) [Phage-2573]", 0.0695),
    ("VVKWCKPAWMCEQA (Clonal phage displaying the peptide, tested as crude supernatant; also called peptide-180 library clone; not shown: fused to the pIII filament protein of the bacteriophage) [Phage-2584]", 0.0788),
    ("LQEWCIPPWMCIKS (Clonal phage displaying the peptide, tested as crude supernatant; also called peptide-180 library clone; not shown: fused to the pIII filament protein of the bacteriophage) [Phage-2578]", 0.0797),
]
